Reference source: patent US20240241135A1

The entries below are paired with their reported OD value.
measured_target: T1, recombinant human regenerating islet-derived protein 1α (REG1A) (human, UniProt P05451 23-166, limits assumed)
T1 construct: also called recombinant human REG1A; recombinant REG1A
T1 sequence (looked up): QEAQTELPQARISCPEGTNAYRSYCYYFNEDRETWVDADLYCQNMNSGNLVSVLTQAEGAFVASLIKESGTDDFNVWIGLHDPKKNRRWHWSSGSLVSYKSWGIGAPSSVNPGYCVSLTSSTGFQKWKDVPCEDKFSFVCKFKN
protocol_notes: sandwich ELISA; capture 12F12A10; REG1A 0 ng/mL (blank)

So what does the record say about OD value for antibody 12F12A10 (antibody, V domains shown, Mouse monoclonal from hybridoma, stated mouse IgG1/Kappa; also called 12F12A10-biotin; Antibody 2) VH: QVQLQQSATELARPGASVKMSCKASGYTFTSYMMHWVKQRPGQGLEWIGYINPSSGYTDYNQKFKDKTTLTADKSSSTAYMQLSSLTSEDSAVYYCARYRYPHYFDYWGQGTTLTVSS VL: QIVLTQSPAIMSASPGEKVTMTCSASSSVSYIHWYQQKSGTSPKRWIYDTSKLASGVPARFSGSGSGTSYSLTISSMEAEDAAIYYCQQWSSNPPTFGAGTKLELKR ? 0.089 OD

Further cases:
So what does the record say about OD value for antibody 11D11B11 (antibody, mouse IgG2a, kappa, V domains shown, Mouse monoclonal from hybridoma, stated mouse IgG1/Kappa; Used unlabelled as capture and biotin-labelled as detection antibody; also called 11D11B11-biotin) VH: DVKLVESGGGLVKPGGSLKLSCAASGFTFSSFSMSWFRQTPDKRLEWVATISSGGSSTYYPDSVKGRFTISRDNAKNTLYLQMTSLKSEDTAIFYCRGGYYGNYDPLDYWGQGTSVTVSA VL: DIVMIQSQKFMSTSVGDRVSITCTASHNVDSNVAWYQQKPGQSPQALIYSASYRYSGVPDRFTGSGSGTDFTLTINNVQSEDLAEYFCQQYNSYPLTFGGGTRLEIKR ? 0.075 OD

So what's the measured OD value for this one? antibody 21B11D2 (antibody, mouse IgG2b, kappa, V domains shown, Mouse monoclonal from hybridoma, stated mouse IgG1/Kappa; Used unlabelled as capture and biotin-labelled as detection antibody; also called 21B11D2-biotin) VH: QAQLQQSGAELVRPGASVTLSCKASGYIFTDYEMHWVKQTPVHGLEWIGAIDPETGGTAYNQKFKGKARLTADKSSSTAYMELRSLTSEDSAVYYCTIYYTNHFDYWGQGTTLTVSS VL: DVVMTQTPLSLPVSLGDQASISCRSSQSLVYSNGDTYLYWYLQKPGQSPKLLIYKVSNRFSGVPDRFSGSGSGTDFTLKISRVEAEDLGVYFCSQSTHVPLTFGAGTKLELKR 0.068 OD
